measurement_protocol: Inhibition of protein phosphatase (PP2A) at 250 uM
// label = 1 (yes) if inhibition is not less than 70%, otherwise 0 (no)

Solved entries:
molecule=C=C(CC[C@H](O)[C@@]1(C)CC[C@H](C(C)(C)O)O1)[C@H]1CC[C@H]2O[C@]3(C)CC[C@@H](Br)C(C)(C)O[C@H]3CC[C@]2(C)O1 label_class="0 (no)"
molecule="CC(CCC[C@H]1O[C@@H]([C@]2(C)CC[C@@H](Br)C(C)(C)O2)CC[C@]1(C)O)CC[C@H](O)[C@@]1(C)CC[C@H](C(C)(C)O)O1 (some centres not stated)" label_class="1 (yes)"
molecule=C=C(CC[C@H](O)[C@@]1(C)CC[C@H](C(C)(C)O)O1)[C@H]1CC[C@H]2O[C@@H]([C@]3(C)CC[C@@H](C(C)(C)O)O3)CC[C@]2(C)O1 label_class="0 (no)"
molecule=C=C([C@H](O)C[C@H](O)[C@@]1(C)CC[C@H](C(C)(C)O)O1)[C@H]1CC[C@H]2O[C@@H]([C@]3(C)CC[C@@H](Br)C(C)(C)O3)CC[C@]2(C)O1 label_class="1 (yes)"
molecule=CC(C)(O)[C@H]1CC[C@](C)([C@@H](O)CC[C@](O)(CO)C2=CC[C@H]3O[C@@H]([C@]4(C)CC[C@@H](Br)C(C)(C)O4)CC[C@]3(C)O2)O1 label_class="1 (yes)"
molecule=C=C(CC[C@H](O)[C@@]1(C)CC[C@H](C(C)(C)O)O1)[C@H]1CC[C@H]2O[C@@H]([C@]3(C)CC[C@@H](Br)C(C)(C)O3)CC[C@@]2(C)O1 label_class="0 (no)"

We now examine a further molecule.
stdin: Reported inhibition reaches at least 70% for `CC(C)(O)[C@H]1CC[C@](C)([C@@H](O)CC[C@@](O)(CO)C2=CC[C@H]3O[C@@H]([C@]4(C)CC[C@@H](Br)C(C)(C)O4)CC[C@]3(C)O2)O1` ?
stdout: 1 (yes)
